Endpoint summary: pIC50, system: Serine protease 1 (Homo sapiens), multiple sources combined.
Sequence (P07477 whole entry): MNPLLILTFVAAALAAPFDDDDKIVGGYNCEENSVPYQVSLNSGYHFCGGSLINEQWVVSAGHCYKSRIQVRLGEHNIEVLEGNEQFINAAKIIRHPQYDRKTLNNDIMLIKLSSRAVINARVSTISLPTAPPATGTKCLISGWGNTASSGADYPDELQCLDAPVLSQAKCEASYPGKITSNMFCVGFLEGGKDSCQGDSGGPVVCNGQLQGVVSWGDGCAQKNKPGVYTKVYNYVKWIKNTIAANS
pIC50: −log10 of the molar value.
quantity: pIC50

Query block: Tell me reported pIC50 for CC1CCC(C)N1CCCCCN1C(=O)C(c2cccc(C(=N)N)c2)Oc2ccccc21 (configuration not stated) , tested with Serine protease 1 (Homo sapiens).
Result block: 6.12

Query block: Check N=C(N)N1CCC[C@H](NC(=O)CN2CCCC[C@H](NS(=O)(=O)Cc3ccccc3)C2=O)C1O (some centres not stated) too.
Result block: 7.00

Query block: Check N=C(N)N1CCC(C[C@@H](NS(=O)(=O)Cc2ccccc2-n2cnnn2)C(=O)NCC(=O)N[C@H]2CCCN(C(=N)N)C2O)CC1 (some centres not stated) too.
Result block: 6.27

Query block: Check "Cc1nc(C(=O)[C@H](CCCN=C(N)N)NC(=O)[C@@H]2CC[C@H]3CN(C(=O)CCc4ccccc4)CC(=O)N32)sc1CCO" too.
Result block: 7.92

Query block: Check N=C(N)c1cccc(OC(C(=O)Nc2ccc(C(=O)N3CCCC3)cc2Br)c2ccccc2)c1 (configuration not stated) too.
Result block: 6.28

Query block: Check "CC(=O)OCCC/C(=C1/SC(=S)N(CC(=O)O)C1=O)c1ccc(Br)cc1" too.
Result block: 4.40

A: N=C(N)c1cccc(OC(C(=O)Nc2ccc(-c3ccccc3S(N)(=O)=O)cc2Br)c2ccccc2)c1 (configuration not stated)
B: NCc1ccc(C(=O)N2C[C@@H](n3cc(C4CC4)nn3)C[C@H]2C(=O)NCC(c2ccccc2)c2ccccc2)cc1F
C: CC(C)[C@H]1C(=O)N(CCCc2ccccc2)CC(=O)N1CC(=O)N[C@@H](CC1CCCN(C(=N)N)C1)C(=O)c1nccs1 (some centres not stated)
D: N=C(N)N1CCC(C(NS(=O)(=O)Cc2ccccc2)C(=O)NCC(=O)N[C@H]2CCCN(C(=N)N)C2O)CC1 (some centres not stated)
E: N=C(N)N1CCCC(C[C@H](NC(=O)CN2C(=O)CN(CCCc3ccccc3)C(=O)[C@H]2Cc2ccc(Cl)c(Cl)c2)C(=O)c2nccs2)C1 (some centres not stated)
Query block: Order these by pIC50, descending, and give the full ranking. Output spec: a listing of the labels in the requested order.
Result block: D, A, E, B, C

a: N=C(N)c1cccc(OCC(=O)Nc2ccc(C(=O)N3CCCC3)cc2)c1
b: CC(C)(C)c1ccc(OC(=O)c2ccc(NC(=N)N)cc2)cc1
c: C/C(=C\C(=O)O)c1ccc2c(C)cc(Oc3ccc(C(=N)N)cc3)nc2c1
d: N=C(N)c1cccc(C(=O)N2Cc3ccccc3C[C@@H]2C(=O)Nc2ccc(-c3ccccc3S(N)(=O)=O)cc2)c1
e: N=C(N)N1CCCC(C[C@@H](NS(=O)(=O)Cc2ccccc2C(=O)O)C(=O)NCC(=O)N[C@H]2CCCN(C(=N)N)C2O)C1 (stereo in doubt)
Query block: Exam item: list the entries in increasing order of pIC50. Output spec: a listing of the labels in the requested order.
Result block: c, d, a, e, b
(c: 5.09, d: 5.36, a: 5.57, e: 7.48, b: 7.77)

I: COC(=O)c1cccc(OC(=O)c2ccc(NC(=N)N)cc2)c1
II: N=C(N)N1CCCC(C[C@H](NC(=O)[C@@H]2CC[C@H]3CN(C(=O)CCc4ccccc4)CC(=O)N32)C(=O)c2nc3ccccc3s2)C1 (some centres not stated)
Query block: Would you kindly point out which of I and II has the smaller pIC50 figure? Mark your selection by writing its label.
Result block: II
(II: 6.23, I: 7.57)

I: CS(=O)(=O)Nc1c(CCCc2ccccc2)ccn(CC(=O)N[C@H]2CCCN(C(=N)N)C2O)c1=O (some centres not stated)
II: COC(=O)c1ccccc1CS(=O)(=O)N[C@H](CC1CCCN(C(=N)N)C1)C(=O)NCC(=O)N[C@H]1CCCN(C(=N)N)C1O (stereo in doubt; form 2)
III: CC[C@H](C)[C@H](NC(=O)C(O)Cc1ccc(O)cc1)C(=O)N1C2CC(OS(=O)(=O)O)CCC2C[C@H]1C(=O)NCCCCN=C(N)N (some centres not stated)
IV: N=C(N)N1CCCC(C[C@H](NC(=O)CN2C(=O)CN(CCCc3ccccc3)C(=O)[C@H]2Cc2ccccc2Cl)C(=O)c2nccs2)C1 (some centres not stated)
Query block: Exam item: list the entries in increasing order of pIC50. Output spec: a listing of the labels in the requested order.
Result block: IV, III, I, II

1: N=C(N)NCCC[C@@H](NS(=O)(=O)Cc1ccccc1)C(=O)NCC(=O)N[C@H](CCCNC(=N)N)C(=O)c1nccs1
2: CCC(=O)N1C(=O)[C@H](CCCCC(=N)N)[C@H]2c3cc(-c4cccc(C(=O)N(CC)CC)c4)ccc3C[C@@H]21
Query block: Hi there! Just curious which has the higher pIC50 between 1 and 2 . Mark your selection by writing its label.
Result block: 1
